Overview of reported clearance across a group of compounds:
assay: Clearance in rat at 1 mg/kg, po or 0.5 mg/kg, iv; type: ADME, organism-based; conditions: in vivo
The answer is to be given in mL/min/kg; state only the numeric part.

In the examples that follow, each entry is paired with its recorded clearance.
Asked: Specify clearance for "Cc1ncccc1-c1cnc(NCc2c(F)ccc3c2CCO3)n2cnnc12" and stop.
Given back: 19

Asked: Provide one value: measured clearance of "CN(c1ccn(C)n1)c1cnc(NCc2c(F)ccc3c2CCO3)n2cnnc12"
Given back: 29

Asked: Name the recorded clearance of the item "CN(c1ncco1)c1cnc(NCc2c(F)ccc3c2CCO3)n2cnnc12" in your answer.
Given back: 29

# input for lookup
Asked: Please list clearance recorded for the compound "O=C1CC2(CC2)CN1c1cnc(NCc2c(F)ccc3c2CCO3)n2cnnc12"
Given back: 23
